# ASSAY TEXT: melting temperature; fluorescence melt of hairpins on a sequencing array, two-state fit, raised by 9.35 °C to match UV melts
# CONDITION LABEL: sodium 0.088 M
Output y for records whose Tm is lower than 50 °C, n for records at or above 50 °C.

Query :: Field: below-cutoff. Rule: recorded Tm strictly less than 50 °C. Subject: GATCCATTATGGATC ((((((...))))))
Result :: n

====

# ASSAY TEXT: folding enthalpy; higher = less favourable; fluorescence melt of hairpins on a sequencing array, two-state fit
# CONDITION LABEL: sodium 0.088 M
Some sequences, each annotated with its measured folding enthalpy.
Give the value, in units of kcal/mol, as a plain number.

Please review the following examples before continuing.
SEQUENCE CONTENT: GCTAACCGAAAGGTAGC (((.(((....))))))
UNITS TEXT: kcal/mol
folding enthalpy: -31.9
//
SEQUENCE CONTENT: GGAGTTGGAAACAACTTC (.(((((....))))).)
UNITS TEXT: kcal/mol
folding enthalpy: -31.1
//
SEQUENCE CONTENT: GCGCGTTCGAAAGAACGC (((..(((....))))))
UNITS TEXT: kcal/mol
folding enthalpy: -6.28
//
SEQUENCE CONTENT: GATCTGTCGCAGATC ((((((...))))))
UNITS TEXT: kcal/mol
folding enthalpy: -24.5
//
SEQUENCE CONTENT: CGATAGAAATATCG (((((....)))))
UNITS TEXT: kcal/mol
folding enthalpy: -19.8
//
SEQUENCE CONTENT: GATCAAAGGTTGATC ((((((...))))))
UNITS TEXT: kcal/mol
folding enthalpy: -27.2
//
SEQUENCE CONTENT: CGGATGAAAATCCG (((((....)))))
UNITS TEXT: kcal/mol
folding enthalpy: -25.5
//
SEQUENCE CONTENT: GCGGCGCGAAAGCACGGC ((.(.((....)).).))
UNITS TEXT: kcal/mol
folding enthalpy: -20.5
//
SEQUENCE CONTENT: GGCTCCGAAAGGATGGCC ((((((....)))..)))
UNITS TEXT: kcal/mol
folding enthalpy: -30.9
//
SEQUENCE CONTENT: GATCGTGTTAACGATC ((((((....))))))
UNITS TEXT: kcal/mol
folding enthalpy: -36

Next:
Query :: Identify the reported folding enthalpy for the following entry. GCGACTGGAAACGGTTGC ((.((.(....).)).))
Result :: -32.1

====

Measured Tm, listed per entry for reference.
# ASSAY TEXT: melting temperature; fluorescence melt of hairpins on a sequencing array, two-state fit, raised by 9.35 °C to match UV melts
# CONDITION LABEL: sodium 0.088 M
All answers are understood in °C, so give the number only.

Record excerpt, results attached:
SEQUENCE CONTENT: GACCGGCGAAAGCCAGTC (((.(((....))).)))
UNITS TEXT: °C
Tm: 50.7
//
SEQUENCE CONTENT: GATCGACGCCTCGATC ((((((....))))))
UNITS TEXT: °C
Tm: 51.6
//
SEQUENCE CONTENT: GATCGACGAATCGATC ((((((....))))))
UNITS TEXT: °C
Tm: 49
//
SEQUENCE CONTENT: GTTTGAGCGAAAGCTAAC (((..(((....))))))
UNITS TEXT: °C
Tm: 31.1
//
SEQUENCE CONTENT: GATCCTCGTGAGGATC ((((((....))))))
UNITS TEXT: °C
Tm: 61.5
//
SEQUENCE CONTENT: GCGTCAGTACGC ((((....))))
UNITS TEXT: °C
Tm: 51.1
//
SEQUENCE CONTENT: GGTAACGCGAAAGCGACC (((..(((....))))))
UNITS TEXT: °C
Tm: 40.9
//
SEQUENCE CONTENT: GCGTGGCGAAAGCGTCGC (((..((....))..)))
UNITS TEXT: °C
Tm: 58.7
//
SEQUENCE CONTENT: GATCCTCGGTAGGATC ((((((....))))))
UNITS TEXT: °C
Tm: 50.9
//
SEQUENCE CONTENT: AAAGGGAAACCTTT (((((....)))))
UNITS TEXT: °C
Tm: 32.2

Then there is this sequence:
Query :: Respond only with Tm recorded for GATCGGCAGTCCGATC ((((((....))))))
Result :: 56.7
